assay: Volume of distribution at steady state in Balb/C mouse plasma at 2.6 mg/kg, iv up to 24 hrs by LC-MS analysis; type: ADME, organism-based; settings: read-out: Vdss
endpointLabel: Vd
Provide a numeric answer, followed by its unit.

Could you share which Vd value was measured for `N=C(N)NC(=O)c1nc(-c2cc3ccccc3o2)c(N2CCCCCC2)nc1N` ?
2.3 L/kg

---

assay: Half life in Sprague-Dawley rat at 2.6 mg/kg, iv up to 24 hrs by LC-MS analysis; format: ADME, organism-based; settings: in vivo
endpointLabel: half-life (h)
Record the value in h, omitting the unit from your answer.

Could you share which half-life value was measured for `N=C(N)NC(=O)c1nc(-c2cc3ccccc3o2)c(N)nc1N` ?
4.9
